target: equine FcRn (large alpha subunit p51) / equine beta-2-microglobulin complex, biotinylated (equine) (UniProt P30441); test: SPR (Biacore), pH 6
Recorded pKd for the following binders
A value of pKd is the negative decimal logarithm of a concentration given in moles per litre.

- equine IgG1 T286P (antibody, part only; not given: variable domains, not shown: another chain or arm of the molecule) constant: ASTTAPKVFALAPGCGTTSDSTVALGCLVSGYFPEPVKVSWNSGSLTSGVHTFPSVLQSSGFYSLSSMVTVPASTWTSETYICNVVHAASNFKVDKRIEPIPDNHQKVCDMSKCPKCPAPELLGGPSVFIFPPNPKDTLMITRTPEVTCVVVDVSQENPDVKFNWYMDGVEVRPATTRPKEEQFNSTYRVVSVLRIQHQDWLSGKEFKCKVNNQALPQPIERTITKTKGRSQEPQVYVLAPHPDELSKSKVSVTCLVKDFYPPEINIEWQSNGQPELETKYSTTQAQQDSDGSYFLYSKLSVDRNRWQQGTTFTCGVMHEALHNHYTQKNVSKNPGK: 7.84

Now look at this one.
Query: Tell me pKd reported for equine IgG4 A426F (antibody, part only; not given: variable domains, not shown: another chain or arm of the molecule) constant: ASTTAPKVFPLASHSAATSGSTVALGCLVSSYFPEPVTVSWNSGALTSGVHTFPSVLQSSGLYSLSSMVTVPASSLKSQTYICNVAHPASSTKVDKKIVIKECNGGCPAECLQVGPSVFIFPPKPKDVLMISRTPTVTCVVVDVGHDFPDVQFNWYVDGVETHTATTEPKQEQFNSTYRVVSVLPIQHKDWLSGKEFKCKVNNKALPAPVERTISKPTGQPREPQVYVLAPHRDELSKNKVSVTCLVKDFYPTDIDIEWKSNGQPEPETKYSTTPAQLDSDGSYFLYSKLTVETNRWQQGTTFTCFVMHEALHNHYTEKSVSKSPGK
Reply: 7.75
